Items are presented alongside their recorded normalized growth.
# assay: chemical genetic growth profiling, strain panel (AID 1159580);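 also: tested at 20 µM; growth read once vehicle control cultures reached saturation at 30 °C; 1 = growth at the plate median or of vehicle wells; lower values mean less growth of the strain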
# test_context: S. cerevisiae deletion strains, growth OD, locus YLR085C, strain ARP6, active compounds read low
Among all 5,500 compounds or so, about 2,000 (36%) were called active. Another 18% or so got no clear call; they are omitted. The list shows a part of the results.
Lab note: record just the number, no unit beside it.

Use these answered entries as a reference point.
{"compound": "COc1ccc(-c2c(C)nc3ccc(Cl)cc3c2-c2ccccc2)cc1OC", "normalized growth": 0.785}
{"compound": "NC(=NS(=O)(=O)c1cc(C(F)(F)F)cc(C(F)(F)F)c1)c1cccs1", "normalized growth": 0.928}
{"compound": "COc1cc(C2N=C(c3ccc(Cl)cc3)SC(c3ccc(Cl)cc3)=N2)cc(OC)c1OC", "normalized growth": 1}
{"compound": "O=C(NC(=S)NCc1ccncc1)c1ccccc1", "normalized growth": 0.969}
{"compound": "CC1CCN(C(=O)CC#N)CC1", "normalized growth": 1.01}

// field: normalized growth; key: `COc1ccc(NS(=O)(=O)c2c(C)noc2C)cc1` ; value = 1.02

// field: normalized growth; key: `COc1ccc(-c2ccnc(SCC(=O)NCCSCc3ccco3)n2)cc1` ; value = 0.98

// field: normalized growth; key: `CCSc1sc(C(=O)OC)c(-c2ccc(Cl)cc2)c1C#N` ; value = 0.817

// field: normalized growth; key: `O=C(Nc1ccc(C(F)(F)F)cc1)Nc1ccccc1C(=O)O` ; value = 1

// field: normalized growth; key: `O=S(=O)(N/N=C\c1ccc(Cl)cc1)c1ccc(-c2ccccn2)s1` ; value = 0.912

// field: normalized growth; key: `Fc1cccc(Cl)c1CSc1nncn1-c1ccc(OCc2ccccc2)cc1` ; value = 0.831
